Test: Part 2: pharmacokinetics, plasma concentration of oleoyl-estrone
Assay type: in vivo, human
Conditions: both sexes, human, plasma, oral, 100 mg, 100 mg group (highest), Day 1
ASSAY ENDPOINT: Cmax (ng/mL)
Entry rule: numbers only, all in ng/mL.

Returns the measured Cmax for the input compound. Input: CCCCCCCC/C=C\CCCCCCCC(=O)Oc1ccc2c(c1)CC[C@@H]1[C@@H]2CC[C@]2(C)C(=O)CC[C@@H]12
2.4

====

Experiment: Part 2: pharmacokinetics, plasma concentration of oleoyl-estrone
Assay type: in vivo, human
Details: both sexes, human, plasma, oral, 100 mg, 100 mg group (highest), Day 7
ASSAY ENDPOINT: Cmax
Don't forget the unit after the number, please.

Returns the measured Cmax for the input molecule. Input: CCCCCCCC/C=C\CCCCCCCC(=O)Oc1ccc2c(c1)CC[C@@H]1[C@@H]2CC[C@]2(C)C(=O)CC[C@@H]12
3.2 ng/mL

====

Assay: Part 2: pharmacokinetics, plasma concentration of oleoyl-estrone
Format: in vivo, human
Details: both sexes, human, plasma, oral; Day 1, across dose groups; read-out: oleoyl-estrone plasma levels
ASSAY ENDPOINT: concentration at 1 day

Returns the measured concentration at 1 day for the input compound. Input: CCCCCCCC/C=C\CCCCCCCC(=O)Oc1ccc2c(c1)CC[C@@H]1[C@@H]2CC[C@]2(C)C(=O)CC[C@@H]12
0.3 to 2.4 ng/mL
